# Target Of Assay: T1, Duffy Antigen Receptor for Chemokines (DARC) (human, UniProt Q16570 1-336)
# T1 construct: whole, on cells
# T1 sequence (looked up): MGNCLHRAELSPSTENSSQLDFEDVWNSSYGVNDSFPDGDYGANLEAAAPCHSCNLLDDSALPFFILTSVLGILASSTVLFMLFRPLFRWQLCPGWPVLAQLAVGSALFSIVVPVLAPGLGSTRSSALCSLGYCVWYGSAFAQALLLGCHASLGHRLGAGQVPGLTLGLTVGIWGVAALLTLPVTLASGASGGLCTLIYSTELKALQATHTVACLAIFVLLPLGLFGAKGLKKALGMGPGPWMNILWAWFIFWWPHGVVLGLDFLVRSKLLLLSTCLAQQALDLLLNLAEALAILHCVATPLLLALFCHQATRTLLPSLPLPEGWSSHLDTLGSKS
# Experiment Description: DARC binding on red blood cells
pKd: −log10 of the molar value.
Experimental Endpoint: pKd

# get_value(readout='pKd', item= SYRRITSSK [Peptide 2(1-9)[MCP-1]] )
~4.30
